- tested on: GlcNAc(b1-3)Gal(b1-4)GlcNAc(b1-3)Gal(b1-4)GlcNAc(b1-3)Gal(b1-4)GlcNAc(b1-3)Gal(b1-4)GlcNAc(b1-2)[GlcNAc(b1-3)Gal(b1-4)GlcNAc(b1-3)Gal(b1-4)GlcNAc(b1-3)Gal(b1-4)GlcNAc(b1-3)Gal(b1-4)GlcNAc(b1-6)]Man(a1-6)[GlcNAc(b1-3)Gal(b1-4)GlcNAc(b1-3)Gal(b1-4)GlcNAc(b1-3)Gal(b1-4)GlcNAc(b1-3)Gal(b1-4)GlcNAc(b1-2)Man(a1-3)]Man(b1-4)GlcNAc(b1-4)[Fuc(a1-6)]GlcNAc
- test method notes: glycan array binding signal (z-score within array); higher = stronger binding
- protocol conditions: glycan notation: IUPAC condensed, linker removed
Many of the other results were omitted from the sample, so the strongest signals are more common in it than they were.
measured quantity: glycan array binding signal (z-score)
// no unit string in output, number only

| binder | measured quantity | experimental result |
| --- | --- | --- |
| PpFlo2 (Pichia pastoris) (protein) MGSSHHHHHHSSGLVPRGSHMDDSGNGDNSDTAYGCDITTNAVDGFDATIYQYNANDLRLIRDPTFMSTGYLGRNVLNKISGVTVPGFNIWNPSSRTATVYGVKNVNYYNMVLELKGYFKADVSGDYKLTLSHIDDSSMLFFGKETAFKCCDAGSIPLNEAPTDYSLFTIKPSNQVNSEVISATQYLEAGKYYPVRIVFVNALERARFDFKLTIPSGAVLDDFQNYIYQFGDLDENSCHE | glycan array binding signal (z-score) | 4.18 |

Okay, now this binder:
Answer with the recorded glycan array binding signal (z-score) for the binder listed here: ArathEULS3 TAP (Arabidopsis thaliana) (protein) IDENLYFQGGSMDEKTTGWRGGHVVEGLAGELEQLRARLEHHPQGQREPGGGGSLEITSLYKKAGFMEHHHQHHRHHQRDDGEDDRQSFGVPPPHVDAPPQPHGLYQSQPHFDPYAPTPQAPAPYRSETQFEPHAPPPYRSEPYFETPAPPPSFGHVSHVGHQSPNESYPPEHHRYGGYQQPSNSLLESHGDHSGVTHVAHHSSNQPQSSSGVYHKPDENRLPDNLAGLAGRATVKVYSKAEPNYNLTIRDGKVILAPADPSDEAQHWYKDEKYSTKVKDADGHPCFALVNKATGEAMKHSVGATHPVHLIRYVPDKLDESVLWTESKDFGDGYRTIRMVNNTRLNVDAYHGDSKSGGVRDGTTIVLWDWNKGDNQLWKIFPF 3.16
